assay overview: reversal of MRP1-mediated doxorubicin resistance, pilot screen, H69AR cells, doxorubicin co-treatment (AID 601)
recorded conditions: H69AR cells, CellTiter-Glo, 72 h; compound alone cytotoxicity; at 10 µM
Hi! Just check whether viability is below 90%. Below gives Met, equal or above gives Not met.

Example entries and their recorded answers appear below.
compound: CCOc1ccc(NC(=O)c2ccccc2O)cc1
discrete label: Not met

compound: O=S(=O)(c1ccccc1)N(Cc1nc(-c2ccccc2)no1)C1CCCCC1
discrete label: Met

compound: O=C(C1CCCN(S(=O)(=O)c2cnc[nH]2)C1)N1CC(=O)N(CCc2ccccc2)C(=O)C1 (stereo unspecified)
discrete label: Not met

Note: attention shifts to another entry.
Exam item: Determine whether this compound shows viability lower than 90% (ties excluded): CCCCCn1c(N2CCN(Cc3ccccc3)CC2)nc2c1c(=O)[nH]c(=O)n2C
Marked response: Met
